assay: Pharmacokinetics of caspofungin during continuous venovenous hemodiafiltration (CVVHD); assay type: in vivo, human; conditions: human, in vivo, iv, patient 7; 1.5 h after infusion ended; steady state, CVVHD; HPLC; read-out: Arterial caspofungin concentration
measured_metric: level at 1.5 h (ng/mL)

molecule	measured_metric	observed_measurement
CC[C@H](C)C[C@H](C)CCCCCCCCC(=O)N[C@H]1C[C@@H](O)[C@@H](NCCN)NC(=O)[C@@H]2[C@@H](O)CCN2C(=O)[C@H]([C@H](O)CCN)NC(=O)[C@H]([C@H](O)[C@@H](O)c2ccc(O)cc2)NC(=O)[C@@H]2C[C@@H](O)CN2C(=O)[C@H]([C@@H](C)O)NC1=O [caspofungin]	level at 1.5 h	5270

* * *

assay: Pharmacokinetics of caspofungin during continuous venovenous hemodiafiltration (CVVHD); assay type: in vivo, human; conditions: human, in vivo, iv, patient 3; 1.5 h after infusion ended; steady state, CVVHD; HPLC; read-out: Arterial caspofungin concentration
measured_metric: level at 1.5 h (ng/mL)

compound	observed_measurement
CC[C@H](C)C[C@H](C)CCCCCCCCC(=O)N[C@H]1C[C@@H](O)[C@@H](NCCN)NC(=O)[C@@H]2[C@@H](O)CCN2C(=O)[C@H]([C@H](O)CCN)NC(=O)[C@H]([C@H](O)[C@@H](O)c2ccc(O)cc2)NC(=O)[C@@H]2C[C@@H](O)CN2C(=O)[C@H]([C@@H](C)O)NC1=O [caspofungin]	7050

* * *

test: Pharmacokinetics of caspofungin during continuous venovenous hemodiafiltration (CVVHD); type: in vivo, human; details: human, in vivo, iv, patient 3; 2 h after infusion ended; steady state, CVVHD; HPLC; read-out: Arterial caspofungin concentration

compound	level at 2 h [ng/mL]
CC[C@H](C)C[C@H](C)CCCCCCCCC(=O)N[C@H]1C[C@@H](O)[C@@H](NCCN)NC(=O)[C@@H]2[C@@H](O)CCN2C(=O)[C@H]([C@H](O)CCN)NC(=O)[C@H]([C@H](O)[C@@H](O)c2ccc(O)cc2)NC(=O)[C@@H]2C[C@@H](O)CN2C(=O)[C@H]([C@@H](C)O)NC1=O [caspofungin]	6910

* * *

test: Pharmacokinetics of caspofungin during continuous venovenous hemodiafiltration (CVVHD); type: in vivo, human; details: human, in vivo, iv, patient 7; 0.5 h after infusion ended; steady state, CVVHD; HPLC; read-out: Arterial caspofungin concentration

molecule	level at 0.5 h [ng/mL]
CC[C@H](C)C[C@H](C)CCCCCCCCC(=O)N[C@H]1C[C@@H](O)[C@@H](NCCN)NC(=O)[C@@H]2[C@@H](O)CCN2C(=O)[C@H]([C@H](O)CCN)NC(=O)[C@H]([C@H](O)[C@@H](O)c2ccc(O)cc2)NC(=O)[C@@H]2C[C@@H](O)CN2C(=O)[C@H]([C@@H](C)O)NC1=O [caspofungin]	7090

* * *

assay: Pharmacokinetics of caspofungin during continuous venovenous hemodiafiltration (CVVHD); type: in vivo, human; settings: human, in vivo, iv, patient 6; 24 h after infusion ended; steady state, CVVHD; HPLC; read-out: Arterial caspofungin concentration

smiles_record	unit_descriptor	level at 24 h
CC[C@H](C)C[C@H](C)CCCCCCCCC(=O)N[C@H]1C[C@@H](O)[C@@H](NCCN)NC(=O)[C@@H]2[C@@H](O)CCN2C(=O)[C@H]([C@H](O)CCN)NC(=O)[C@H]([C@H](O)[C@@H](O)c2ccc(O)cc2)NC(=O)[C@@H]2C[C@@H](O)CN2C(=O)[C@H]([C@@H](C)O)NC1=O	ng/mL	2470
